Item-by-item account of IC50
Tested on: L. major promastigote LV39 substrain
Assay: In vitro activity against promastigotes, LV39
Format: cell-based
Conditions: Leishmania major; promastigote LV39, 48 h
measurementName: IC50 (µM)

molecule="N=C(N)c1ccc(OCCCCCOc2ccc(C(=N)N)cc2)cc1 [Pentamidine, reference compound]" experimentalsystem="L. major promastigote LV39 substrain" measureunit=µM quantitativereadout=5.7
molecule="O=C(N/N=C/c1ccc([N+](=O)[O-])o1)NNC(=O)c1ccc(Cl)cc1 [LASSBio-1491]" experimentalsystem="L. major promastigote LV39 substrain" measureunit=µM quantitativereadout=7.7

* * *

Experiment: Microsomal metabolism
Assay type: in vitro ADME
Conditions: pH 7.4; rat liver microsomes, with co-factor
Experimental: The study of the microsomal metabolism of the compounds was evaluated by placing 1 mg/ml rat liver microsome in a microcentrifuge tube, in the presence of a NADPH generator system (1 mM NADP^+, 1.5 mM MgCl2, 3.5 mM glucose-6-phosphate and 0.5 U/mL glucose-6-phosphate dehydrogenase) and phosphate buffer pH 7.4 in sufficient quantity for 250 μL. […]
Measured half-life at 5 μM accompanies every entry in the list below.
measurementName: half-life at 5 μM (h)

structuresmiles=O=C(N/N=C/c1ccc([N+](=O)[O-])o1)NNC(=O)c1ccc(Cl)cc1 quantitativereadout=2.68
structuresmiles=O=C(N/N=C/c1ccc(C(F)(F)F)cc1)NNC(=O)c1ccc(Cl)cc1Cl quantitativereadout=3.5
